// provenance: patent US9132126B2

Listed next: entries and their corresponding CC50 at 24 h.
Assay: Cytotoxicity assay using MTT
Type: cell-based
Conditions: dog, MDCK cells infected with influenza virus (K09), MDCK cell infected with K09; compound 24 hours; read-out: MTT assay (Experimental Example 3) CC50
Experimental: In this experiment, a cell was infected with a virus, and then the virus was directly treated with a compound so as to determine if the virus-infected cell has toxicity. […] After 1 hour, a formazan crystal produced by the MTT reagent was dissolved in DMSO, and the absorbance was measured by an ELISA reader so as to determine CC50. measured by MTT assay. […]

# molecule, CC50 at 24 h
records = [
    ("CCOC(=O)C1CCN(C(=O)c2c(-c3ccccc3Cl)noc2N)CC1 [Example 122]", "161 to 321 µg/mL"),
    ("Nc1onc(-c2cccc(F)c2)c1C(=O)N1CCN(c2ccc(Cl)c(Cl)c2)CC1 [Example 67]", "10.1 to 21.2 µg/mL"),
    ("Cc1onc(-c2cccc(F)c2)c1C(=O)N1CCN(c2ccccc2O)CC1 [Example 16]", "78.1 µg/mL"),
    ("Nc1onc(-c2cccc(C(F)(F)F)c2)c1C(=O)N1CCN(c2ccc(Cl)c(Cl)c2)CC1 [Example 107]", "122 to 170 µg/mL"),
    ("Cc1onc(-c2cccc(F)c2)c1C(=O)N1CCN(c2ccc(Cl)c(Cl)c2)CC1 [Example 11]", "287 to 625 µg/mL"),
    ("COc1ccccc1N1CCN(C(=O)c2c(-c3cccc(OC(F)(F)F)c3)noc2C)CC1 [Example 53]", "> 500 µg/mL"),
    ("COc1cccc(N2CCN(C(=O)c3c(-c4ccccc4C(F)(F)F)noc3C)CC2)c1 [Example 3]", "308 to 628 µg/mL"),
    ("COc1cccc(N2CCN(C(=O)c3c(-c4ccc(OC(F)(F)F)cc4)noc3N)CC2)c1 [Example 100]", "18.4 to 46.5 µg/mL"),
]

* * *

Listed here are compounds together with their documented CC50 at 24 h.
experiment: Cytotoxicity assay using MTT; type: cell-based; conditions: dog, MDCK cells infected with influenza virus (K09), MDCK cell infected with K09; compound 24 hours; read-out: MTT assay (Experimental Example 3) CC50

# compound, CC50 at 24 h
records = [
    ("COc1cccc(N2CCN(C(=O)c3c(-c4ccccc4Cl)noc3C)CC2)c1", "312 to 625 µg/mL"),
    ("Cc1onc(-c2ccccc2OC(F)(F)F)c1C(=O)N1CCN(c2ccc(Cl)c(Cl)c2)CC1", "312 to 625 µg/mL"),
    ("Nc1onc(-c2cccc(F)c2)c1C(=O)N1CCN(c2ccccc2O)CC1", "15.6 to 31.2 µg/mL"),
    ("COc1cccc(N2CCN(C(=O)c3c(-c4cccc(F)c4)noc3C)CC2)c1", "78.1 to 156 µg/mL"),
    ("Cc1onc(-c2cccc(C(F)(F)F)c2)c1C(=O)N1CCN(c2ccc(Cl)c(Cl)c2)CC1", "2500 µg/mL"),
    ("COc1cccc(N2CCN(C(=O)c3c(-c4cccc(OC(F)(F)F)c4)noc3N)CC2)c1", "13.7 to 25.6 µg/mL"),
    ("CCOC(=O)C1=C[C@@H](OC(CC)CC)[C@H](NC(C)=O)[C@@H](N)C1 [Oseltamivir, reference compound]", "625 to 1250 µg/mL"),
    ("COc1cccc(N2CCN(C(=O)c3c(-c4cccc(F)c4)noc3N)CC2)c1", "88.1 to 137 µg/mL"),
]
